Reference for the values: PubChem BioAssay (EPA / NIEHS)

assay: ATG_Oct_MLP_CIS: Attagene CIS-FACTORIAL HepG2 Assay for human Octamer-Binding Transcription Factor (Oct) (AID 2282993); conditions: HepG2 Attagene cis-factorial Oct reporter, mRNA; actives raise or lower the signal
Active and inactive are the calls of the source. How the source made its calls: active means hit-call score of the fitted dose curve at least 0.9, where 1 is the maximum; inactive means score below 0.9.
Hello, when you answer, please use one of the following outcomes: TRUE for active, FALSE for inactive

COMPOUND | ASSIGNED_CLASS
Nc1cnn(-c2ccccc2)c(=O)c1Cl | FALSE
Clc1cccc(C(Cl)(Cl)Cl)n1 | FALSE

I would be grateful if you could indicate the recorded call for COC(=O)NS(=O)(=O)c1ccc(N)cc1 .
FALSE

I would be grateful if you could indicate the recorded call for Cc1cc(C)nc(Nc2ccccc2)n1 .
TRUE

I would be grateful if you could indicate the recorded call for COCc1cnc(C2=NC(C)(C(C)C)C(=O)N2)c(C(=O)O)c1 (stereo not drawn) .
FALSE
